- Test system: SW-620
- Experiment description: Growth inhibition of human SW-620 cells at 10 uM relative to control
- Type: functional
- Particulars: read-out: GI
Entries annotated with measured inhibition of growth at 10 µM

{"Compound": "COc1ccc(/C=C/C2=CC(c3ccc(OC)cc3)N3C=CSC3=N2)cc1 (configuration not stated)", "inhibition of growth at 10 µM": "< 10%"}
{"Compound": "COc1ccc(/C=C/C2=CC(c3ccc(OC)c(OC)c3)N3C(C)=CSC3=N2)cc1OC (configuration not stated)", "inhibition of growth at 10 µM": "< 10%"}
{"Compound": "COc1cc(/C=C/C2=CC(c3cc(OC)c(OC)c(OC)c3)N3C(C)=CSC3=N2)cc(OC)c1OC (configuration not stated)", "inhibition of growth at 10 µM": "< 10%"}
{"Compound": "CCOC(=O)C1=CSC2=NC(/C=C/c3ccc(OC)c(OC)c3)=CC(c3ccc(OC)c(OC)c3)N12 (configuration not stated)", "inhibition of growth at 10 µM": "< 10%"}
{"Compound": "COc1cccc2c1C(=O)c1c(O)c3c(c(O)c1C2=O)C[C@@](O)(C(=O)CO)C[C@@H]3O[C@H]1C[C@H](N)[C@H](O)[C@H](C)O1", "inhibition of growth at 10 µM": "98.1%"}
{"Compound": "CC1=CN2C(=NC(/C=C/c3ccc(Cl)cc3)=CC2c2ccc(Cl)cc2)S1 (configuration not stated)", "inhibition of growth at 10 µM": "< 10%"}
{"Compound": "C1=CN2C(=NC(/C=C/c3cccs3)=CC2c2cccs2)S1 (configuration not stated)", "inhibition of growth at 10 µM": "< 10%"}
{"Compound": "CCOC(=O)C1=CSC2=NC(/C=C/c3ccc(Cl)cc3)=CC(c3ccc(Cl)cc3)N12 (configuration not stated)", "inhibition of growth at 10 µM": "< 10%"}
{"Compound": "CC1=CN2C(=NC(/C=C/c3ccc(C)cc3)=CC2c2ccc(C)cc2)S1 (configuration not stated)", "inhibition of growth at 10 µM": "< 10%"}
{"Compound": "CC1=CSC2=NC(/C=C/c3cccs3)=CC(c3cccs3)N12 (configuration not stated)", "inhibition of growth at 10 µM": "< 10%"}
{"Compound": "COc1ccc(/C=C/C2=CC(c3ccc(OC)c(OC)c3)N3C=CSC3=N2)cc1OC (configuration not stated)", "inhibition of growth at 10 µM": "< 10%"}
{"Compound": "CCOC(=O)C1=CSC2=NC(/C=C/c3cc(OC)c(OC)c(OC)c3)=CC(c3cc(OC)c(OC)c(OC)c3)N12 (configuration not stated)", "inhibition of growth at 10 µM": "13.4%"}
